Sourced from ChEMBL document CHEMBL1140164

biological target: Cholinesterase (Homo sapiens, UniProt P06276); experiment: Inhibition of human plasma BuchE by Ellman's method; type: cell-free
Sequence (P06276 whole entry): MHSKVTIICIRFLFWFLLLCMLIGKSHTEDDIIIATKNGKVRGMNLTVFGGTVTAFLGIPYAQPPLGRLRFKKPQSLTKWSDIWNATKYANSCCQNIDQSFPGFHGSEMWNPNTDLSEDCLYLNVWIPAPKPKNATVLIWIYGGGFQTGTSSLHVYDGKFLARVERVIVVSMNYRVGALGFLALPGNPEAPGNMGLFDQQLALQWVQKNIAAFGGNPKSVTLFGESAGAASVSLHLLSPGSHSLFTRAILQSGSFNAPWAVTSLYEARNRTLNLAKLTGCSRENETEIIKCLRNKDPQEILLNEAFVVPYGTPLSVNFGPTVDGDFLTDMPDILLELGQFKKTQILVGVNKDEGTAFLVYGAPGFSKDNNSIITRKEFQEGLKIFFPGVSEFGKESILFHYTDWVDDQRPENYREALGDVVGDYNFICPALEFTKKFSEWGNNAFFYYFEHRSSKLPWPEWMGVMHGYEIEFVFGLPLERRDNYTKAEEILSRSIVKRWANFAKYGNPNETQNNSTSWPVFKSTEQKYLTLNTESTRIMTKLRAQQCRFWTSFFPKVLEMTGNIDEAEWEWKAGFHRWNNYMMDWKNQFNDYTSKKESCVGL
A collection of compounds and their measured IC50
OUTCOME MEASURE: IC50 (µM)

CCCNC(=O)O[C@H]1CO[C@H]2[C@@H]1OC[C@H]2O[N+](=O)[O-]	0.639
O=C(/C=C/c1ccc(O)cc1)O[C@@H]1CO[C@H]2[C@@H]1OC[C@@H]2OC(=O)NCc1ccccc1	0.073
O=C(NCc1ccccc1)O[C@H]1CO[C@H]2[C@@H]1OC[C@H]2OC(=O)c1ccc(-c2ccccc2)cc1	0.012
O=C(NCc1ccccc1)O[C@H]1CO[C@H]2[C@@H]1OC[C@H]2OC(=O)c1ccccc1	0.0043
O=C(NCc1ccccc1)O[C@H]1CO[C@H]2[C@@H]1OC[C@H]2OC(=O)c1cccnc1	0.057
O=C(NCc1ccccc1)O[C@H]1CO[C@H]2[C@@H]1OC[C@H]2OC(=O)C1CCCC1	0.006
CCCCNC(=O)O[C@H]1CO[C@H]2[C@@H]1OC[C@H]2O[N+](=O)[O-]	0.894
O=C(NCc1ccccc1)O[C@H]1CO[C@H]2[C@@H]1OC[C@H]2OC(=O)c1cccc2ccccc12	0.028

###

experiment: Selectivity ratio of IC50 for electric eel AchE to IC50 for human plasma BuchE
OUTCOME MEASURE: Ratio IC50

O=C(NCc1ccccc1)O[C@H]1CO[C@H]2[C@@H]1OC[C@H]2OC(=O)c1cccc2ccccc12	1340
O=C(/C=C/c1ccc(O)cc1)O[C@@H]1CO[C@H]2[C@@H]1OC[C@@H]2OC(=O)NCc1ccccc1	821
O=C(NCc1ccccc1)O[C@H]1CO[C@H]2[C@@H]1OC[C@H]2OC(=O)c1cccnc1	1750
CCC(C)NC(=O)O[C@H]1CO[C@H]2[C@@H]1OC[C@H]2OC(=O)c1ccccc1 (some centres undefined)	1390
O=C(NCc1ccccc1)O[C@H]1CO[C@H]2[C@@H]1OC[C@H]2OC(=O)C1CC1	300
O=C(NCc1ccccc1)O[C@H]1CO[C@H]2[C@@H]1OC[C@H]2OC(=O)c1ccc(-c2ccccc2)cc1	4190
O=C(NCc1ccccc1)O[C@H]1CO[C@H]2[C@@H]1OC[C@H]2OC(=O)c1ccc2ccccc2c1	1370

###

target: Acetylcholinesterase (Electrophorus electricus); assay: Inhibition of electric eel AchE at 100 uM by Ellman's method
OUTCOME MEASURE: inhibition (%)

O=C(Nc1ccc(Cl)c(Cl)c1)O[C@H]1CO[C@H]2[C@@H]1OC[C@H]2O[N+](=O)[O-]	78
O=C(Nc1ccccc1Cl)O[C@H]1CO[C@H]2[C@@H]1OC[C@H]2O[N+](=O)[O-]	24
CCNC(=O)O[C@H]1CO[C@H]2[C@@H]1OC[C@H]2O[N+](=O)[O-]	1
O=C(NCc1ccccc1)O[C@H]1CO[C@H]2[C@@H]1OC[C@H]2OC(=O)c1ccc(-c2ccccc2)cc1	89
O=C(NCc1ccccc1)O[C@H]1CO[C@H]2[C@@H]1OC[C@H]2OC(=O)c1cccnc1	33
CNC(=O)O[C@H]1CO[C@H]2[C@@H]1OC[C@H]2OC(=O)c1ccccc1	54
O=C(NCc1ccccc1)O[C@H]1CO[C@H]2[C@@H]1OC[C@H]2OC(=O)c1ccc2ccccc2c1	80
O=C(/C=C/c1ccccc1)O[C@@H]1CO[C@H]2[C@@H]1OC[C@@H]2OC(=O)NCc1ccccc1	82
O=C(NCc1ccccc1)O[C@H]1CO[C@H]2[C@@H]1OC[C@H]2OC(=O)C1CCCC1	88
